Biological target: T1, VPS4A MIT_(L64D) (human, UniProt Q9UN37 1-84, L64D)
T1 sequence (looked up): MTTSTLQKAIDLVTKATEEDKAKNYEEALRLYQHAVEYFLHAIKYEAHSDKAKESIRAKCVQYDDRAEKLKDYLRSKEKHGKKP
Assay: SPR
property: Kd (µM)
Report as a plain number; the unit µM is understood.

Reported Kd, binder QEQIELPEVPSEPLPEK (domain or fragment, human, UniProt Q96FZ7 165-181, looked up) [GST-CHMP6_(165−181) fragment] : ____ 26.1
